- EXPERIMENTAL_SYSTEM: PSMA (Homo sapiens (Human))
- Sequence (Q04609 whole entry): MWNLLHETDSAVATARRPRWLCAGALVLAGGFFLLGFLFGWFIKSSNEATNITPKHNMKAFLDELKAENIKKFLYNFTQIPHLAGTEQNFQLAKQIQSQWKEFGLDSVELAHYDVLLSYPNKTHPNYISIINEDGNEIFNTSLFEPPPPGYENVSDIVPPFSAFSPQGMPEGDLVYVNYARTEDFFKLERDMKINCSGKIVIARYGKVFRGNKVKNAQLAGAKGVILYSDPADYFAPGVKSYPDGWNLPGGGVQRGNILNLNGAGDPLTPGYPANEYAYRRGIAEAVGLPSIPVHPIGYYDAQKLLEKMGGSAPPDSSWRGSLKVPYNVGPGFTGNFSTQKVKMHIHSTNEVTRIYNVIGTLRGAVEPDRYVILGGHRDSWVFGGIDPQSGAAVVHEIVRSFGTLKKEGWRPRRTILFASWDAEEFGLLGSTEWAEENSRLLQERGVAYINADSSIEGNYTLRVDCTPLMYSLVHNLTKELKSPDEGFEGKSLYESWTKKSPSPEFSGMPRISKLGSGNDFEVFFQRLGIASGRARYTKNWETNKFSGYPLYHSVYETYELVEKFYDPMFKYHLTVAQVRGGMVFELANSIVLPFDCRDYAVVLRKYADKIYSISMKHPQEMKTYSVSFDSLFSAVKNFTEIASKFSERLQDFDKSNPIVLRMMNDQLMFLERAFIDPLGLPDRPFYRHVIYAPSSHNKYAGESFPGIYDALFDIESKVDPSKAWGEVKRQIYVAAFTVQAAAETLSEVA
- ASSAY_PROTOCOL: PSMA inhibitory activity (NAAG hydrolysis by LNCaP cell lysate, Amplex Red glutamate detection)
- CONDITION_INFO: LNCaP cell lysate, NAAG substrate, Ki by Cheng-Prusoff equation
QUANTITY: Ki

CC(C)C[C@H](NC(=O)N[C@@H](CNC(=O)c1c[nH]cn1)C(=O)O)C(=O)O [Comparative Compound DS2] :: > 1000 nM
CC(C)C[C@H](NC(=O)N[C@@H](CNC(=O)c1c[nH]nn1)C(=O)O)C(=O)O [Comparative Compound DS3] :: > 1000 nM

Then this compound:
Give reported Ki value for CC(C)C[C@H](NC(=O)N[C@@H](CNC(=O)c1ncc[nH]1)C(=O)O)C(=O)O [Comparative Compound DS1]
> 1000 nM
